- Target System: ICK (human)
- Method Notes: KINOMEscan competition binding
- Condition Notes: compound 10.0 µM
What kinase still bound, per cent of control was measured for each of the following?
Hi! Could you send only the number? It should be in %, unit omitted.

Exercise: What value of measured kinase still bound, per cent of control is listed for C=CC(=O)Nc1cc(-n2c(=O)ccc3cnc4ccc(-c5cn[nH]c5)cc4c32)ccc1C ?
Solution: 67

Exercise: What value of measured kinase still bound, per cent of control is listed for CCN(CC)CCCCNc1ncc2c(n1)N(C)C(=O)N(c1c(Cl)c(OC)cc(OC)c1Cl)C2 ?
Solution: 100

Exercise: What value of measured kinase still bound, per cent of control is listed for N#CCNC(=O)c1ccc(-c2ccnc(Nc3ccc(N4CCOCC4)cc3)n2)cc1 ?
Solution: 100

Exercise: What value of measured kinase still bound, per cent of control is listed for COc1cc(C(=O)N2CCC(N3CCN(C)CC3)CC2)ccc1Nc1ncc2c(n1)N(C)c1ccccc1C(=O)N2C ?
Solution: 90

Exercise: What value of measured kinase still bound, per cent of control is listed for COc1cc(N2CCN(C)CC2)ccc1Nc1ncc2c(n1)N(C)c1ccccc1C(=O)N2C ?
Solution: 100

Exercise: What value of measured kinase still bound, per cent of control is listed for O=C(Nc1cccc(Nc2ncc(Br)c(NCCc3cnc[nH]3)n2)c1)N1CCCC1 ?
Solution: 10

Exercise: What value of measured kinase still bound, per cent of control is listed for NC(=O)Nc1cc(-c2cccc(F)c2)sc1C(=O)N[C@@H]1CCCNC1 ?
Solution: 100

Exercise: What value of measured kinase still bound, per cent of control is listed for COc1cc2ncn(-c3cc(OCc4ccccc4C(F)(F)F)c(C(N)=O)s3)c2cc1OC ?
Solution: 100

Exercise: What value of measured kinase still bound, per cent of control is listed for COc1ccc(N(C(=O)Oc2c(C)cccc2C)c2ccnc(Nc3ccc(N4CCN(C)CC4)cc3)n2)c(OC)c1 ?
Solution: 100

Exercise: What value of measured kinase still bound, per cent of control is listed for CCN1CCN(C(=O)Cc2ccc(Nc3ncc(F)c(Nc4ccc(C(=O)Nc5ccccc5Cl)cc4)n3)cc2)CC1 ?
Solution: 100

Exercise: What value of measured kinase still bound, per cent of control is listed for CS(=O)(=O)N1CCN(Cc2cc3nc(-c4cccc5[nH]ncc45)nc(N4CCOCC4)c3s2)CC1 ?
Solution: 100

Exercise: What value of measured kinase still bound, per cent of control is listed for COc1cc2ncnc(-n3nc(-c4ccccn4)nc3N)c2cc1OC ?
Solution: 47

Exercise: What value of measured kinase still bound, per cent of control is listed for COCC(=O)NC/C=C/c1ccc2ncnc(Nc3ccc(Oc4ccc(C)nc4)c(C)c3)c2c1 ?
Solution: 100

Exercise: What value of measured kinase still bound, per cent of control is listed for CN(C)C/C=C/C(=O)Nc1ccc(C(=O)Nc2cccc(Nc3nccc(-c4cccnc4)n3)c2)cc1 ?
Solution: 62

Exercise: What value of measured kinase still bound, per cent of control is listed for CNC(=O)c1cc(Oc2ccc(NC(=O)Nc3ccc(Cl)c(C(F)(F)F)c3)cc2)ccn1 ?
Solution: 92

Exercise: What value of measured kinase still bound, per cent of control is listed for O=C1NC(=O)/C(=C/c2ccc3nccc(-c4ccncc4)c3c2)S1 ?
Solution: 46

Exercise: What value of measured kinase still bound, per cent of control is listed for O=c1cc(N2CCOCC2)oc2c(-c3cccc4c3sc3ccccc34)cccc12 ?
Solution: 100
